System: HCT-116 (human colorectal cancer cell line)
Test: MTT cytotoxicity assay, HCT-116 under anoxia or normoxia
Assay type: cell-based
Conditions: HCT-116, activity promotion under anoxia; >100 set as 100
Listing of entries alongside the reported HCT-116 Value = IC50(normoxia)/IC50(anoxia).
reported endpoint: HCT-116 Value = IC50(normoxia)/IC50(anoxia)

- CCOC(=O)c1cc2ccc(OCc3cn(CCO[C@H]4O[C@@H]5O[C@@]6(C)CC[C@H]7[C@H](C)CC[C@@H]([C@H]4C)[C@@]57OO6)nn3)cc2oc1=O [12e]: 1.62
- CCOC(=O)c1cc2ccc(OCCn3cc(CO[C@H]4O[C@@H]5O[C@@]6(C)CC[C@H]7[C@H](C)CC[C@@H]([C@H]4C)[C@@]57OO6)nn3)cc2oc1=O [10e]: 1.79
- Cc1c(Cl)c(=O)oc2cc(OCc3cn(CCO[C@H]4O[C@@H]5O[C@@]6(C)CC[C@H]7[C@H](C)CC[C@@H]([C@H]4C)[C@@]57OO6)nn3)ccc12 [12d]: 2.71
- C[C@H]1[C@@H](OCCCn2cc(COc3ccc4c(C(F)(F)F)cc(=O)oc4c3)nn2)O[C@@H]2O[C@@]3(C)CC[C@H]4[C@H](C)CC[C@@H]1[C@@]24OO3 [13b]: 7.43
- Cc1c(C)c2ccc(OCCCn3cc(CO[C@H]4O[C@@H]5O[C@@]6(C)CC[C@H]7[C@H](C)CC[C@@H]([C@H]4C)[C@@]57OO6)nn3)cc2oc1=O [11c]: 1.27
- CCOC(=O)c1cc2ccc(OCc3cn(CCCO[C@H]4O[C@@H]5O[C@@]6(C)CC[C@H]7[C@H](C)CC[C@@H]([C@H]4C)[C@@]57OO6)nn3)cc2oc1=O [13e]: 3.65
- C[C@H]1[C@@H](OCc2cn(CCCOc3ccc4c(C(F)(F)F)cc(=O)oc4c3)nn2)O[C@@H]2O[C@@]3(C)CC[C@H]4[C@H](C)CC[C@@H]1[C@@]24OO3 [11b]: 1.38

---

System: HT-29 (human colon carcinoma cell line, overexpresses high amounts of CA IX)
Assay: MTT cytotoxicity assay, HT-29 under anoxia or normoxia
Format: cell-based
Settings: Homo sapiens; HT-29, anoxia 24 h then normoxia 72 h, MTT; read-out: IC50 HT-29 Anoxia
reported endpoint: log10 of IC50 (log10 of the value in µM)

- CCOC(=O)c1cc2ccc(OCCCn3cc(CO[C@H]4O[C@@H]5O[C@@]6(C)CC[C@H]7[C@H](C)CC[C@@H]([C@H]4C)[C@@]57OO6)nn3)cc2oc1=O [11e]: 1.08
- Cc1cc(=O)oc2cc(OCc3cn(CCCO[C@H]4O[C@@H]5O[C@@]6(C)CC[C@H]7[C@H](C)CC[C@@H]([C@H]4C)[C@@]57OO6)nn3)ccc12 [13a]: 0.81
- CCOC(=O)c1cc2ccc(OCc3cn(CCO[C@H]4O[C@@H]5O[C@@]6(C)CC[C@H]7[C@H](C)CC[C@@H]([C@H]4C)[C@@]57OO6)nn3)cc2oc1=O [12e]: 1.32
- C[C@H]1[C@@H](OCCCn2cc(COc3ccc4c(C(F)(F)F)cc(=O)oc4c3)nn2)O[C@@H]2O[C@@]3(C)CC[C@H]4[C@H](C)CC[C@@H]1[C@@]24OO3 [13b]: 0.73
- Cc1cc(=O)oc2cc(OCCn3cc(CO[C@H]4O[C@@H]5O[C@@]6(C)CC[C@H]7[C@H](C)CC[C@@H]([C@H]4C)[C@@]57OO6)nn3)ccc12 [10a]: 0.17
- C[C@H]1[C@@H](OCc2cn(CCCOc3ccc4c(C(F)(F)F)cc(=O)oc4c3)nn2)O[C@@H]2O[C@@]3(C)CC[C@H]4[C@H](C)CC[C@@H]1[C@@]24OO3 [11b]: 0.70

---

Listing: pIC50 of selected compounds
Tested on: HT-29 (human colon carcinoma cell line, overexpresses high amounts of CA IX)
Assay: MTT cytotoxicity assay, HT-29 under anoxia or normoxia
Type: cell-based
Conditions: Homo sapiens; HT-29, anoxia 24 h then normoxia 72 h, MTT; read-out: IC50 HT-29 Anoxia
pIC50: −log10 of the molar value.
reported endpoint: pIC50

• CCOC(=O)c1cc2ccc(OCc3cn(CCCO[C@H]4O[C@@H]5O[C@@]6(C)CC[C@H]7[C@H](C)CC[C@@H]([C@H]4C)[C@@]57OO6)nn3)cc2oc1=O [13e] = 5.15
• Cc1cc(=O)oc2cc(OCCCn3cc(CO[C@H]4O[C@@H]5O[C@@]6(C)CC[C@H]7[C@H](C)CC[C@@H]([C@H]4C)[C@@]57OO6)nn3)ccc12 [11a] = 5.91
• C[C@H]1[C@@H](OCc2cn(CCOc3ccc4c(C(F)(F)F)cc(=O)oc4c3)nn2)O[C@@H]2O[C@@]3(C)CC[C@H]4[C@H](C)CC[C@@H]1[C@@]24OO3 [10b] = 5.66
• Cc1c(Cl)c(=O)oc2cc(OCc3cn(CCO[C@H]4O[C@@H]5O[C@@]6(C)CC[C@H]7[C@H](C)CC[C@@H]([C@H]4C)[C@@]57OO6)nn3)ccc12 [12d] = 5.44
• CCOC(=O)c1cc2ccc(OCCn3cc(CO[C@H]4O[C@@H]5O[C@@]6(C)CC[C@H]7[C@H](C)CC[C@@H]([C@H]4C)[C@@]57OO6)nn3)cc2oc1=O [10e] = 5.06
• Cc1c(Cl)c(=O)oc2cc(OCCCn3cc(CO[C@H]4O[C@@H]5O[C@@]6(C)CC[C@H]7[C@H](C)CC[C@@H]([C@H]4C)[C@@]57OO6)nn3)ccc12 [11d] = 5.87

---

Test system: HCT-116 (human colorectal cancer cell line)
Experiment: MTT cytotoxicity assay, HCT-116 under anoxia or normoxia
Assay type: cell-based
Conditions: HCT-116, activity promotion under anoxia; >100 set as 100
reported endpoint: HCT-116 Value = IC50(normoxia)/IC50(anoxia)

* Cc1cc(=O)oc2cc(OCCCn3cc(CO[C@H]4O[C@@H]5O[C@@]6(C)CC[C@H]7[C@H](C)CC[C@@H]([C@H]4C)[C@@]57OO6)nn3)ccc12 [11a] | 1.36
* Cc1c(C)c2ccc(OCc3cn(CCCO[C@H]4O[C@@H]5O[C@@]6(C)CC[C@H]7[C@H](C)CC[C@@H]([C@H]4C)[C@@]57OO6)nn3)cc2oc1=O [13c] | 8.95
* Cc1c(Cl)c(=O)oc2cc(OCCn3cc(CO[C@H]4O[C@@H]5O[C@@]6(C)CC[C@H]7[C@H](C)CC[C@@H]([C@H]4C)[C@@]57OO6)nn3)ccc12 [10d] | 0.79
* Cc1c(C)c2ccc(OCCn3cc(CO[C@H]4O[C@@H]5O[C@@]6(C)CC[C@H]7[C@H](C)CC[C@@H]([C@H]4C)[C@@]57OO6)nn3)cc2oc1=O [10c] | 0.95
* COc1cccc2c1C(=O)c1c(O)c3c(c(O)c1C2=O)C[C@@](O)(C(=O)CO)C[C@@H]3O[C@H]1C[C@H](N)[C@H](O)[C@H](C)O1 [DOX, doxorubicin, reference compound] | 0.39
* Cc1c(Cl)c(=O)oc2cc(OCCCn3cc(CO[C@H]4O[C@@H]5O[C@@]6(C)CC[C@H]7[C@H](C)CC[C@@H]([C@H]4C)[C@@]57OO6)nn3)ccc12 [11d] | 1.28
* C[C@H]1[C@@H](OCCn2cc(COc3ccc4c(C(F)(F)F)cc(=O)oc4c3)nn2)O[C@@H]2O[C@@]3(C)CC[C@H]4[C@H](C)CC[C@@H]1[C@@]24OO3 [12b] | 0.35
* C[C@H]1[C@@H](OCc2cn(CCOc3ccc4c(C(F)(F)F)cc(=O)oc4c3)nn2)O[C@@H]2O[C@@]3(C)CC[C@H]4[C@H](C)CC[C@@H]1[C@@]24OO3 [10b] | 0.78
* Cc1cc(=O)oc2cc(OCc3cn(CCO[C@H]4O[C@@H]5O[C@@]6(C)CC[C@H]7[C@H](C)CC[C@@H]([C@H]4C)[C@@]57OO6)nn3)ccc12 [12a] | 1.50
* Cc1c(C)c2ccc(OCc3cn(CCO[C@H]4O[C@@H]5O[C@@]6(C)CC[C@H]7[C@H](C)CC[C@@H]([C@H]4C)[C@@]57OO6)nn3)cc2oc1=O [12c] | 1.33
* Cc1c(Cl)c(=O)oc2cc(OCc3cn(CCCO[C@H]4O[C@@H]5O[C@@]6(C)CC[C@H]7[C@H](C)CC[C@@H]([C@H]4C)[C@@]57OO6)nn3)ccc12 [13d] | 41.38

---

Assay: MTT cytotoxicity assay, summary statements over all cell lines
Type: cell-based
Details: human, MRC-5, HCT-116, MDA-MB-231 and HT-29 cells; 96 h MTT assay, four cell lines, normoxic or anoxic
reported endpoint: IC50 at 96 h

- CC(=O)Nc1nnc(S(N)(=O)=O)s1 [AAZ, acetazolamide]: > 100 µM
